- Read-out: Heat shock 70 kDa protein 1 (HSPA1A), gene 3303
- experiment: LTEA_HepaRG_HSPA1A: Life Technologies and Expression Analysis (LTEA) Assay for Heat shock 70 kDa protein 1 (HSPA1A) using HepaRG (AID 2283502)
- study conditions: mRNA level, 48 h; actives raise or lower the signal
- Method: LTEA_HepaRG is a cell based, multiplexed-readout assay that uses HepaRG, a human liver cell line, with measurements taken at 48 hours after chemical dosing on a 96-well plate.LTEA_HepaRG_HSPA1A is one of 102 assay component(s) measured in the LTEA HepaRG cell culture assay. It is a marker of Oxidative Stress.Data from the assay component LTEA_HepaRG_HSPA1A was analyzed into 1 endpoint. […]
Activity calls are given as the source filed them. The calls were made as follows: active = hit-call score of the fitted dose curve at least 0.9, where 1 is the maximum; inactive = score below 0.9.
Give your call using only these classes: YES = active, NO = inactive

Before answering, review these 10 worked examples.
COc1cnc(OC)n2nc(NS(=O)(=O)c3c(OCC(F)F)cccc3C(F)(F)F)nc12; YES
C=CCC1=C(C)[C@@H](OC(=O)[C@@H]2[C@@H](C=C(C)C)C2(C)C)CC1=O; NO
COc1nc(NC(C)C)nc(NC(C)C)n1; NO
O=C(O)COc1nc(Cl)c(Cl)cc1Cl; NO
CC(C)(C)c1ccc(CSc2cnn(C(C)(C)C)c(=O)c2Cl)cc1; NO
N#Cc1cc(Br)c(O)c(Br)c1; YES
Cc1c(F)c(F)c(COC(=O)C2C(/C=C(\Cl)C(F)(F)F)C2(C)C)c(F)c1F (stereo unspecified); NO
CCOC(=O)CC(SP(=S)(OC)OC)C(=O)OCC (stereo unspecified); NO
CCOc1cc(Oc2ccc(C(F)(F)F)cc2Cl)ccc1[N+](=O)[O-]; NO
OC(c1ccc(Cl)cc1)(c1cncnc1)c1ccccc1Cl (stereo unspecified); NO

As a next step, examine the compound that follows.
Q. Assay outcome for CC(C)C1(C)N=C(c2nc3ccccc3cc2C(=O)O)NC1=O (stereo unspecified) : what was it?
A. NO

----------
- target system: human Fibroblast Growth Factor Receptor 1 (FGFR1), FGFR1 (gene 2260) (UniProt P11362)
- Sequence (P11362 whole entry, looked up): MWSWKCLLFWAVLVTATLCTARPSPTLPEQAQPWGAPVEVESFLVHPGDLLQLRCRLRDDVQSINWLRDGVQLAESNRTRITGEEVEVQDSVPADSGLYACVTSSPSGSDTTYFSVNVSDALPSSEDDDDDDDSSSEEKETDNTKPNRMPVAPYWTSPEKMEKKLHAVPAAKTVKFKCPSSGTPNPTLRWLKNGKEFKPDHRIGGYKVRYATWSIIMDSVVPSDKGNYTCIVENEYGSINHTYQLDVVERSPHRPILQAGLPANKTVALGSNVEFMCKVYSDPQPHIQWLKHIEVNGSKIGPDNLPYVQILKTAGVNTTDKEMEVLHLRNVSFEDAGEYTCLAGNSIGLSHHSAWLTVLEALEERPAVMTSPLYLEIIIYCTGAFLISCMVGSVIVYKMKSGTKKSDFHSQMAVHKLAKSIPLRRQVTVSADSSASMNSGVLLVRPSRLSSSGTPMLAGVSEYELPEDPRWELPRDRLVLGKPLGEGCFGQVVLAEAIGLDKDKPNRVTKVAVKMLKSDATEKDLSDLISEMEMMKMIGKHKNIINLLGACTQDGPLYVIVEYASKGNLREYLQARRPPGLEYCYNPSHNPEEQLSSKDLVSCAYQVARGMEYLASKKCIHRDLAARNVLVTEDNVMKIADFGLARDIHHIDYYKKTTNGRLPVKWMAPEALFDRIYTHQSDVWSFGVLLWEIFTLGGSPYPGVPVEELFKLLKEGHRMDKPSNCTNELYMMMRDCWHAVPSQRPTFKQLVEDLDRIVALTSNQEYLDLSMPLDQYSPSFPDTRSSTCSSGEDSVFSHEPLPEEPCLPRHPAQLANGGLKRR
- experiment: NVS_ENZ_hFGFR1: NovaScreen (NVS) Enzymatic Assay for human Fibroblast Growth Factor Receptor 1 (FGFR1) (AID 2283159)
Inconclusive results are not listed. Active and inactive are the calls of the source. How the source made its calls: active means hit-call score of the fitted dose curve at least 0.9, where 1 is the maximum; inconclusive means response in the unintended direction; inactive means score below 0.9.
property label: outcome

CCCN(CCC)c1c([N+](=O)[O-])cc(S(N)(=O)=O)cc1[N+](=O)[O-]; inactive
N#Cc1nn(-c2c(Cl)cc(C(F)(F)F)cc2Cl)c(N)c1S(=O)C(F)(F)F (centres undefined); inactive
CCCCNC(=O)OCC#CI; inactive
CO/C=C(/C(=O)OC)c1ccccc1Oc1cc(Oc2ccccc2C#N)ncn1; inactive

----------
- experiment: ATG_MRE_CIS: Attagene CIS-FACTORIAL HepG2 Assay for human Metal Responsive Element (MRE) (AID 2282954)
- study conditions: HepG2 MRE cis-reporter transcription, Attagene multiplex; actives raise or lower the signal
Active and inactive are the calls of the source. The calls were made as follows: active = hit-call score of the fitted dose curve at least 0.9, where 1 is the maximum; inactive = score below 0.9.
property label: AC50

// known answers, use as guide
O=C(Nc1ccccc1)Nc1ccnc(Cl)c1; 37 µM (active)
Cc1ccc(-c2c(Cl)nc(C#N)n2S(=O)(=O)N(C)C)cc1; inactive
CC(C)(C)c1ccc(CSc2cnn(C(C)(C)C)c(=O)c2Cl)cc1; 7.83 µM (active)
CC1COC(Cn2cncn2)(c2ccc(Oc3ccc(Cl)cc3)cc2Cl)O1 (stereo not drawn); 3.17 µM (active)
COc1nc(C)nc(NC(=O)NS(=O)(=O)c2ccccc2CCC(F)(F)F)n1; inactive

Alright, here's another compound for you.
Q. Fill in the blank: the reported AC50 of CCc1nn(C)c(C(=O)NCc2ccc(C(C)(C)C)cc2)c1Cl is ____.
A. 2.3 µM (active)

Data origin: PubChem BioAssay (EPA / NIEHS)
